system: CCRIS mutagenicity, Ames/micronucleus/aberration tests; assay: CCRIS mutagenicity studies; conditions: Test System: AMES SALMONELLA TYPHIMURIUM; Strain/Indicator: TA97; Metabolic Activation: HAMSTER, LIVER, S-9, AROCLOR 1254 (10%); Method: PREINCUBATION
Activity calls are given as the source filed them. No rule for the calls is given here.
Thanks in advance; please answer with one of these: active, inactive

Below are worked cases with known answers.
In [3]: df
Out[3]:
                                   molecule                            assayed_system  label_value
0  O=c1c2ccc3c4c(ccc(c24)c2nc4ccccc4n12)c(=O)n1c2ccccc2nc31  CCRIS mutagenicity, Ames/micronucleus/aberration tests     inactive
1      CC(CC(=O)O)C(=O)O (stereo not drawn)  CCRIS mutagenicity, Ames/micronucleus/aberration tests     inactive
2         CNc1ccc(N(CCO)CCO)cc1[N+](=O)[O-]  CCRIS mutagenicity, Ames/micronucleus/aberration tests       active
3                           O=C/C=C/c1ccco1  CCRIS mutagenicity, Ames/micronucleus/aberration tests     inactive
4            ClCC(Br)CBr (stereo not drawn)  CCRIS mutagenicity, Ames/micronucleus/aberration tests       active
5                             O=C1CCC(=O)O1  CCRIS mutagenicity, Ames/micronucleus/aberration tests     inactive
6  COc1cc([N+](=O)[O-])ccc1N=NC(C(C)=O)C(=O)Nc1ccccc1OC (stereo not drawn)  CCRIS mutagenicity, Ames/micronucleus/aberration tests     inactive
7                            Cc1cc(O)ccc1Cl  CCRIS mutagenicity, Ames/micronucleus/aberration tests     inactive
8  O=S(=O)(O)c1ccc(N=Nc2c(O)ccc3cc(S(=O)(=O)O)ccc23)cc1  CCRIS mutagenicity, Ames/micronucleus/aberration tests     inactive
9                        [O]=[Mo](=[O])=[O]  CCRIS mutagenicity, Ames/micronucleus/aberration tests     inactive

input: Assay result, entry Nc1cc([N+](=O)[O-])cc(Cl)c1O — outcome?
output: active

input: Assay result, entry CCN(CC)CCCC(C)Nc1c2ccc(Cl)cc2nc2ccc(OC)cc12 (stereo not drawn) — outcome?
output: active

input: Assay result, entry c1ccc(Nc2ccc3ccccc3c2)cc1 — outcome?
output: inactive
